# reported.conditions: 293.15 K; 101.33 kPa; Liquid
value.kind: mass density (kg/m3)
Only the number, expressed in kg/m3, is required.

These recorded examples may help you get a feel for the data.
In [3]: df
Out[3]:
    structure    uom  quantitative_readout
0  CNc1ccccc1  kg/m3               986.077
1     CC(C)=O  kg/m3               790.694
2   Nc1ccccc1  kg/m3                1021.7

Sample c1ccncc1 — what was its mass density? 983.053

----------
# reported.conditions: 303.15 K; 101.33 kPa; Liquid; Pulse-echo method
Numbers after ± are expanded uncertainties.
# reported speed of sound; entries follow

These recorded examples may help you get a feel for the data.
In [3]: df
Out[3]:
    structure            result
0    c1ccncc1  1396.6 ± 0.9 m/s
1   Nc1ccccc1  1619.2 ± 0.9 m/s
2  CNc1ccccc1  1545.5 ± 2.1 m/s

As a next step, examine the compound that follows.
Sample CC(C)=O — what was its speed of sound? 1138.7 ± 0.8 m/s

----------
# reported mass density; entries follow
# reported.conditions: 298.15 K; 101.33 kPa; Liquid
Only the number, expressed in kg/m3, is required.

These recorded examples may help you get a feel for the data.
>>> df
              molecule  quantitative_readout
0    CC(C)=O [acetone]                785.32
1  c1ccncc1 [pyridine]                978.05
2  Nc1ccccc1 [aniline]               1017.41

As a next step, examine the molecule that follows.
Sample CNc1ccccc1 [N-methylaniline] — what was its mass density? 982.066

----------
# reported.conditions: 293.15 K; 101.33 kPa; Liquid; Pulse-echo method
# reported speed of sound; entries follow
Only the number, expressed in m/s, is required.

    structure  uom  quantitative_readout
0  CNc1ccccc1  m/s                1582.3

Sample c1ccncc1 — what was its speed of sound? 1436.7

Sample Nc1ccccc1 — what was its speed of sound? 1657

Sample CC(C)=O — what was its speed of sound? 1182.8

----------
# reported speed of sound; entries follow
# reported.conditions: 298.15 K; 101.33 kPa; Liquid; Pulse-echo method
± gives the expanded uncertainty stated by the source.

These recorded examples may help you get a feel for the data.
                       compound      value_kind            result
0             CC(C)=O [acetone]  speed of sound  1160.7 ± 0.8 m/s
1  CNc1ccccc1 [N-methylaniline]  speed of sound  1564.4 ± 2.1 m/s
2           Nc1ccccc1 [aniline]  speed of sound  1638.6 ± 0.9 m/s

As a next step, examine the compound that follows.
Sample c1ccncc1 [pyridine] — what was its speed of sound? 1416.7 ± 0.9 m/s

----------
# reported.conditions: 303.15 K; 101.33 kPa; Liquid
value.kind: mass density (kg/m3)
Only the number, expressed in kg/m3, is required.

These recorded examples may help you get a feel for the data.
>>> df
              molecule    uom  quantitative_readout
0  c1ccncc1 [pyridine]  kg/m3                972.98
1  Nc1ccccc1 [aniline]  kg/m3               1013.04

Sample CC(C)=O [acetone] — what was its mass density? 778.812

Sample CNc1ccccc1 [N-methylaniline] — what was its mass density? 978.011
